Values compiled from the supplement of paper PMC10307832.

- System: NCI-H1395
- test description: relative viability (nuclei count vs DMSO), 5 days (fraction); higher = more cells survive
- measurement context: first compound 0.1581 µM
Record form. Attribute: relative viability. Fill in for each entry.
Please reply with the value in numeric form only.

Returns the measured relative viability for the input compound. Input: Nc1ccn([C@@H]2O[C@H](CO)[C@@H](O)[C@@H]2O)c(=O)n1 [Cytarabine] + Cc1cc(Nc2cc(N3CCN(C)CC3)nc(Sc3ccc(NC(=O)C4CC4)cc3)n2)n[nH]1 [Tozasertib] (partner 0.1 µM)
0.447

Returns the measured relative viability for the input compound. Input: COc1cc2nccc(Oc3ccc(NC(=O)Nc4cc(C)on4)c(Cl)c3)c2cc1OC [Tivozanib] + O=C(c1cc(Cc2n[nH]c(=O)c3ccccc23)ccc1F)N1CCN(C(=O)C2CC2)CC1 [Olaparib] (partner 8 µM)
0.484

Returns the measured relative viability for the input compound. Input: COc1cc2nccc(Oc3ccc(NC(=O)Nc4cc(C)on4)c(Cl)c3)c2cc1OC [Tivozanib] + COc1cccc2cc(-c3nc([C@H]4CC[C@H](C(=O)O)CC4)n4ncnc(N)c34)[nH]c12 [OSI-027] (partner 0.5 µM)
0.546

Returns the measured relative viability for the input compound. Input: COc1cc2nccc(Oc3ccc(NC(=O)Nc4cc(C)on4)c(Cl)c3)c2cc1OC [Tivozanib] + O=C(CCCCCCC(=O)Nc1ccccc1)NO [Vorinostat] (partner 1 µM)
0.58

Returns the measured relative viability for the input compound. Input: Nc1ccn([C@@H]2O[C@H](CO)[C@@H](O)[C@@H]2O)c(=O)n1 [Cytarabine] + Cc1nc(NC(=O)N2CCC[C@H]2C(N)=O)sc1-c1ccnc(C(C)(C)C(F)(F)F)c1 [Alpelisib] (partner 2 µM)
0.423

---

Record form. Attribute: relative viability. Fill in for each entry.
- Tested on: NCI-H1755
- test description: relative viability (nuclei count vs DMSO), 5 days (fraction); higher = more cells survive
- measurement context: first compound 2.53 µM
Please reply with the value in numeric form only.

Returns the measured relative viability for the input compound. Input: O=c1[nH]c2ccccc2n1C1CCN(CCCC(c2ccc(F)cc2)c2ccc(F)cc2)CC1 [Pimozide] + CC(=O)Nc1cccc(-n2c(=O)n(C3CC3)c(=O)c3c(Nc4ccc(I)cc4F)n(C)c(=O)c(C)c32)c1 [Trametinib] (partner 0.02 µM)
0.761

Returns the measured relative viability for the input compound. Input: Cc1cnc(-c2cnc(NCCNc3ccc(C#N)cn3)nc2-c2ccc(Cl)cc2Cl)[nH]1 + CS(=O)(=O)CCNCc1ccc(-c2ccc3ncnc(Nc4ccc(OCc5cccc(F)c5)c(Cl)c4)c3c2)o1 [Lapatinib] (partner 2 µM)
1.07

Returns the measured relative viability for the input compound. Input: Cc1cnc(-c2cnc(NCCNc3ccc(C#N)cn3)nc2-c2ccc(Cl)cc2Cl)[nH]1 + Cc1nc(Nc2ncc(C(=O)Nc3c(C)cccc3Cl)s2)cc(N2CCN(CCO)CC2)n1 [Dasatinib] (partner 0.075 µM)
0.399

Returns the measured relative viability for the input compound. Input: Cc1cnc(-c2cnc(NCCNc3ccc(C#N)cn3)nc2-c2ccc(Cl)cc2Cl)[nH]1 + Nc1nc2[nH]cc(CCc3ccc(C(=O)N[C@@H](CCC(=O)O)C(=O)O)cc3)c2c(=O)[nH]1 [Pemetrexed] (partner 0.2 µM)
0.565

Returns the measured relative viability for the input compound. Input: Cc1cnc(-c2cnc(NCCNc3ccc(C#N)cn3)nc2-c2ccc(Cl)cc2Cl)[nH]1 + O=C(CCCCCCC(=O)Nc1ccccc1)NO [Vorinostat] (partner 1 µM)
0.823

Returns the measured relative viability for the input compound. Input: Cc1cnc(-c2cnc(NCCNc3ccc(C#N)cn3)nc2-c2ccc(Cl)cc2Cl)[nH]1 + Cc1nc(NC(=O)N2CCC[C@H]2C(N)=O)sc1-c1ccnc(C(C)(C)C(F)(F)F)c1 [Alpelisib] (partner 2 µM)
0.896

---

- Tested on: HCC-44
- test description: relative viability (nuclei count vs DMSO), 5 days (fraction); higher = more cells survive
- measurement context: first compound 0.08 µM
readout name: relative viability

Returns the measured relative viability for the input molecule. Input: O=c1[nH]c2ccccc2n1C1CCN(CCCC(c2ccc(F)cc2)c2ccc(F)cc2)CC1 [Pimozide] + Cc1cc(Nc2cc(N3CCN(C)CC3)nc(Sc3ccc(NC(=O)C4CC4)cc3)n2)n[nH]1 [Tozasertib] (partner 0.1 µM)
1.16

Returns the measured relative viability for the input molecule. Input: O=c1[nH]c2ccccc2n1C1CCN(CCCC(c2ccc(F)cc2)c2ccc(F)cc2)CC1 [Pimozide] + Nc1ncn([C@H]2C[C@H](O)[C@@H](CO)O2)c(=O)n1 [Decitabine] (partner 2 µM)
1.01

Returns the measured relative viability for the input molecule. Input: O=c1[nH]c2ccccc2n1C1CCN(CCCC(c2ccc(F)cc2)c2ccc(F)cc2)CC1 [Pimozide] + N=C(N)NC(=N)NCCc1ccccc1 [Phenformin] (partner 250 µM)
0.253

---

- Tested on: NCI-H2342
- test description: relative viability (nuclei count vs DMSO), 5 days (fraction); higher = more cells survive
- measurement context: first compound 0.08 µM
Friendly reminder: relative viability below 0.6 is yes (1), at or above is no (0).

Report whether reported relative viability is lower than 0.6 (strictly) for O=c1[nH]c2ccccc2n1C1CCN(CCCC(c2ccc(F)cc2)c2ccc(F)cc2)CC1 [Pimozide] + COc1cccc2cc(-c3nc([C@H]4CC[C@H](C(=O)O)CC4)n4ncnc(N)c34)[nH]c12 [OSI-027] (partner 0.5 µM)
no (0)

Report whether reported relative viability is lower than 0.6 (strictly) for O=c1[nH]c2ccccc2n1C1CCN(CCCC(c2ccc(F)cc2)c2ccc(F)cc2)CC1 [Pimozide] + N=C(N)NC(=N)NCCc1ccccc1 [Phenformin] (partner 250 µM)
no (0)

Report whether reported relative viability is lower than 0.6 (strictly) for Cc1cnc(-c2cnc(NCCNc3ccc(C#N)cn3)nc2-c2ccc(Cl)cc2Cl)[nH]1 + CC(=O)Nc1cccc(-n2c(=O)n(C3CC3)c(=O)c3c(Nc4ccc(I)cc4F)n(C)c(=O)c(C)c32)c1 [Trametinib] (partner 0.02 µM)
no (0)

Report whether reported relative viability is lower than 0.6 (strictly) for Cc1cnc(-c2cnc(NCCNc3ccc(C#N)cn3)nc2-c2ccc(Cl)cc2Cl)[nH]1 + O=C(c1cc(Cc2n[nH]c(=O)c3ccccc23)ccc1F)N1CCN(C(=O)C2CC2)CC1 [Olaparib] (partner 8 µM)
yes (1)

Report whether reported relative viability is lower than 0.6 (strictly) for O=c1[nH]c2ccccc2n1C1CCN(CCCC(c2ccc(F)cc2)c2ccc(F)cc2)CC1 [Pimozide] + CC(=O)c1c(C)c2cnc(Nc3ccc(N4CCNCC4)cn3)nc2n(C2CCCC2)c1=O [Palbociclib] (partner 0.5 µM)
yes (1)

---

Record form. Attribute: relative viability. Fill in for each entry.
- Test system: CAL-12T
- test description: relative viability (nuclei count vs DMSO), 5 days (fraction); higher = more cells survive
- measurement context: first compound 0.08 µM
Please reply with the value in numeric form only.

Returns the measured relative viability for the input molecule. Input: O=c1[nH]c2ccccc2n1C1CCN(CCCC(c2ccc(F)cc2)c2ccc(F)cc2)CC1 [Pimozide] + CC(=O)Nc1cccc(-n2c(=O)n(C3CC3)c(=O)c3c(Nc4ccc(I)cc4F)n(C)c(=O)c(C)c32)c1 [Trametinib] (partner 0.02 µM)
0.326

Returns the measured relative viability for the input molecule. Input: O=c1[nH]c2ccccc2n1C1CCN(CCCC(c2ccc(F)cc2)c2ccc(F)cc2)CC1 [Pimozide] + N=C(N)NC(=N)NCCc1ccccc1 [Phenformin] (partner 250 µM)
0.581

Returns the measured relative viability for the input molecule. Input: Cc1cnc(-c2cnc(NCCNc3ccc(C#N)cn3)nc2-c2ccc(Cl)cc2Cl)[nH]1 + O=C(CCCCCCC(=O)Nc1ccccc1)NO [Vorinostat] (partner 1 µM)
0.928

Returns the measured relative viability for the input molecule. Input: O=c1[nH]c2ccccc2n1C1CCN(CCCC(c2ccc(F)cc2)c2ccc(F)cc2)CC1 [Pimozide] + C[C@]1(O)C[C@@H](c2nc(-c3ccc4ccc(-c5ccccc5)nc4c3)c3c(N)nccn32)C1 [Linsitinib] (partner 1 µM)
0.745

Returns the measured relative viability for the input molecule. Input: O=c1[nH]c2ccccc2n1C1CCN(CCCC(c2ccc(F)cc2)c2ccc(F)cc2)CC1 [Pimozide] + CC1(C)CCC(c2ccc(Cl)cc2)=C(CN2CCN(c3ccc(C(=O)NS(=O)(=O)c4ccc(N[C@H](CCN5CCOCC5)CSc5ccccc5)c(S(=O)(=O)C(F)(F)F)c4)cc3)CC2)C1 [Navitoclax] (partner 0.5 µM)
1.35

Returns the measured relative viability for the input molecule. Input: O=c1[nH]c2ccccc2n1C1CCN(CCCC(c2ccc(F)cc2)c2ccc(F)cc2)CC1 [Pimozide] + CS(=O)(=O)N1CCN(Cc2cc3nc(-c4cccc5[nH]ncc45)nc(N4CCOCC4)c3s2)CC1 [Pictilisib] (partner 1 µM)
0.399

Returns the measured relative viability for the input molecule. Input: Cc1cnc(-c2cnc(NCCNc3ccc(C#N)cn3)nc2-c2ccc(Cl)cc2Cl)[nH]1 + CC(=O)c1c(C)c2cnc(Nc3ccc(N4CCNCC4)cn3)nc2n(C2CCCC2)c1=O [Palbociclib] (partner 0.5 µM)
0.43

Returns the measured relative viability for the input molecule. Input: Cc1cnc(-c2cnc(NCCNc3ccc(C#N)cn3)nc2-c2ccc(Cl)cc2Cl)[nH]1 + C[C@]1(O)C[C@@H](c2nc(-c3ccc4ccc(-c5ccccc5)nc4c3)c3c(N)nccn32)C1 [Linsitinib] (partner 1 µM)
0.806

Returns the measured relative viability for the input molecule. Input: Cc1cnc(-c2cnc(NCCNc3ccc(C#N)cn3)nc2-c2ccc(Cl)cc2Cl)[nH]1 + Nc1nc2[nH]cc(CCc3ccc(C(=O)N[C@@H](CCC(=O)O)C(=O)O)cc3)c2c(=O)[nH]1 [Pemetrexed] (partner 0.2 µM)
1.19
